Test system: HCT-116 colon
Assay: NCI-60 one-dose screen, 48 h
Conditions: 10 µM unless noted
Experimental: Growth inhibition of the HCT-116 human tumor cell line is measured as a screen for anti-cancer activity. Cells are grown in 96 well plates and exposed to the test compound for 48 hours. Compounds are tested at a single concentration, which is 10^-5 M for most compounds. The reported endpoint is percent growth (GI% or GIPRCNT), where numbers from 0 - 100% represent growth inhibition, and numbers from -100% - 0 represent cell death. For example, a value of 40 represents 60% growth inhibition. […]
This is part of a sample that, as a whole, favours compounds with a hit. Of some 83,000 tested, about 20% had one in any assay. Activity calls are given as the source filed them. How the source made its calls: active means growth percent below 10; inactive means the rest.
Outcomes: active, inactive

| molecule | assigned_class |
| --- | --- |
| CS(=O)(=O)O[C@@H]1C(=O)N(c2cc3c4ccccc4ccc3c3ccccc23)[C@H]1c1ccc(F)cn1 | inactive |
| CC1CCN(CCCCCOc2ccc3oc4cc(Cl)ccc4c(=O)c3c2)CC1 | inactive |
| Cc1ccccc1NC(=O)c1sc2nc(C)c(C(C)O)cc2c1N (centres undefined) | inactive |
| CCN(CC)c1ccc2c(c1)Oc1nc(N)c(C#N)c(N)c1C2Sc1ccc(OC)cc1 (centres undefined) | active |

----------
System: HCC-2998 colon
Assay: NCI-60 one-dose screen, 48 h (100 = growth as untreated, 0 = no growth, -100 = all killed)
Settings: 10 µM unless noted
The panel holds about 83,000 compounds, 20% with a hit somewhere; the sample as a whole holds those more often. Active and inactive are the calls of the source. The calls were made as follows: active = growth percent below 10; inactive = the rest.
readout_name: growth

| compound | readout_name | recorded_value |
| --- | --- | --- |
| C=C(C)[C@@H]1CC[C@]2(C(=O)O)CC[C@]3(C)[C@H](CC[C@@H]4[C@@]5(C)C[C@@H](CC#Cc6ccc(Cl)cc6)C(=O)C(C)(C)[C@@H]5CC[C@]43C)[C@@H]12 | growth | 50.3% (inactive) |
| Nc1ccc(C2=NN(C(=O)c3cc(-c4ccc(Cl)cc4)nc4ccccc34)C(c3ccccc3)C2)cc1 (stereo not drawn) | growth | 59.6% (inactive) |
| O=[N+]([O-])c1ccc(Oc2ccc(-c3ccccc3)cc2)cc1 | growth | 92.2% (inactive) |
| O=C(Nc1ccc2ncnc(Nc3ccc(F)c(Cl)c3)c2c1)c1ccccc1 | growth | 98.7% (inactive) |
| c1cc(CNC23CC4CC(CC(C4)C2)C3)cc(C[N+](Cc2cccc(CNC34CC5CC(CC(C5)C3)C4)c2)(Cc2cccc(CNC34CC5CC(CC(C5)C3)C4)c2)Cc2cccc(CNC34CC5CC(CC(C5)C3)C4)c2)c1 (stereo not drawn) | growth | 34.3% [42 µM] (inactive) |
| Cn1cc(-c2ccc3c(c2)ncn3-c2ccc(CC(=O)Nc3cc(C(C)(C)C)on3)cc2)cn1 | growth | 76.3% (inactive) |
| C#C[C@@]1(O)[C@@H](CO)O[C@@H](n2cc(Cl)c3c(N)ccnc32)[C@@H]1O | growth | 85.4% (inactive) |
| Oc1ccccc1-c1nc2c3ccccc3c3ccccc3c2o1 | growth | 103% (inactive) |

----------
Tested on: HCT-15 colon
Test: NCI-60 one-dose screen, 48 h (100 = growth as untreated, 0 = no growth, -100 = all killed)
Conditions: 10 µM unless noted
The panel holds about 83,000 compounds, 20% with a hit somewhere; the sample as a whole holds those more often.
Heads up, the class ranges for growth are class 1 = under 20%, class 2 = from 20% up to 60%, class 3 = 60% and over

| compound | assigned_class |
| --- | --- |
| CCOC(=O)C1CCN(S(=O)(=O)/N=C2/NC(=O)NC2=C(Cl)Cl)CC1 | class 1 |
| NC[C@@H]1CCN(c2cc3c(cc2F)c(=O)n(N)c(=O)n3Cc2ccc(-c3ccccc3)cc2)C1 | class 2 |
| Cc1nn(-c2ccc(-c3ccc(OC(F)(F)F)cc3)cc2)c2nc(-c3ccccc3)nc(N)c12 | class 3 |
| OCCNc1nc(NCCO)nc(Nc2ccc(C3=NN(c4cc(Cl)cc(Cl)c4)C(c4ccc(C(F)(F)F)cc4)C3)cc2)n1 (stereo unspecified) | class 1 |
| Cc1c(Br)cccc1NC(=O)c1sc2nc3c(cc2c1N)CN(Cc1ccccc1)CC3 | class 1 |
| O=C(C[n+]1cccc2cc(Cl)ccc21)c1ccc2c(c1)CCCC2 | class 3 |
| C=C1C(=O)O[C@H]2[C@H]1CC/C(COC(=O)CCCCCCC(=O)OC/C1=C/CC[C@@]3(C)O[C@H]3[C@H]3OC(=O)C(=C)[C@@H]3CC1)=C\CC[C@@]1(C)O[C@@H]21 | class 1 |
| COc1cc(C(=O)Nc2cc(O)c(C/C=C(\C)CCC=C(C)C)c(O)c2)cc2c1O[C@]1(C)CC[C@@H](O)C(C)(C)[C@H]1C2 | class 1 |
| CC[C@]12C=CCN3CC[C@@]4(c5ccc(OC)cc5N(C)[C@H]4[C@@](O)(C(=O)OC)[C@@H]1OC(=O)CCC(=O)O[C@H]1CC[C@H]4[C@@H]5CC[C@H]6CC(=O)CC[C@]6(C)[C@H]5CC[C@]14C)[C@@H]32 | class 1 |
| CC(=O)OCC1OC(OC2C(COC(C)=O)OC(OCCC[S-])C(OC(C)=O)C2OC(C)=O)C(OC(C)=O)C(OC(C)=O)C1OC(C)=O.[Au+].c1ccc(CN2[CH-]N(Cc3ccccc3)C(c3ccccc3)=C2c2ccccc2)cc1 (stereo unspecified) | class 2 |
| Cc1cnc(SCc2ccc(Cl)cc2)[nH]c1=S | class 3 |
| COc1ccc(OCC(=O)OC(C)C)cc1 | class 3 |
| Cc1c(Cl)cccc1NC(=O)c1sc2nc3c(cc2c1N)CN(Cc1ccccc1)CC3 | class 2 |
| O=C(O)c1cc(N=Nc2ccc(-c3ccc(N=Nc4c(S(=O)(=O)O)cc5ccc(Nc6ccccc6)cc5c4O)cc3)cc2)ccc1O | class 3 |
| C#C[C@@]1(O)[C@@H](CO)O[C@@H](n2cc(Cl)c3c(N)ncnc32)[C@@H]1O | class 1 |

----------
System: 786-0 renal
Assay: NCI-60 one-dose screen, 48 h (100 = growth as untreated, 0 = no growth, -100 = all killed)
Conditions: 10 µM unless noted
About 83,000 compounds went through this panel and 20% of them were active in at least one assay; those are over-represented in the sample as a whole.
Class class 1: growth at least 50%. Class class 0: growth below 50%.

| compound | tgt | assigned_class |
| --- | --- | --- |
| Cc1nc2sc(C(=O)Nc3cccc4ccccc34)c(N)c2cc1C(C)O (centres undefined) | 786-0 renal | class 0 |
| CN(C)[C@@H]1C(=O)C(C(N)=O)=C(O)[C@@]2(O)C(=O)C3=C(O)c4c(O)cc(CN5CCc6ccccc6C5)c(Cl)c4C[C@H]3C[C@@H]12 | 786-0 renal | class 0 |
| CC(=O)Oc1ccc(O)cc1 | 786-0 renal | class 1 |
| O=C1Nc2ccc(Cl)cc2/C1=N/c1nc(-c2ccc(F)cc2)cs1 | 786-0 renal | class 0 |
| O=c1[nH]c2ccccc2cc1-c1nc2ccncc2[nH]1 | 786-0 renal | class 1 |
| COc1ccc(-c2cc(C(=O)N3N=C(c4ccc(N)cc4)CC3c3ccc(OC)cc3)c3cc(OC)ccc3n2)cc1 (centres undefined) | 786-0 renal | class 0 |
| CC(=O)c1ccc(NC(=O)CSc2nnc(-c3cc(-c4ccc(C)cc4)nc4ccccc34)o2)cc1 | 786-0 renal | class 0 |
| COc1ccc2cc(/C=C3\N=C(c4cc(OC)c(OC)c(OC)c4)OC3=O)c(OC)nc2c1 | 786-0 renal | class 1 |
| C[C@H]1[C@H](C)CC[C@]2(C(=O)OCCCC[P+](c3ccccc3)(c3ccccc3)c3ccccc3)CC[C@]3(C)C(=CC[C@@H]4[C@@]5(C)CC[C@H](OC(=O)C(Cl)Cl)C(C)(C)[C@@H]5CC[C@]43C)[C@H]12 | 786-0 renal | class 0 |

----------
System: UACC-62 melanoma
Assay: NCI-60 one-dose screen, 48 h (100 = growth as untreated, 0 = no growth, -100 = all killed)
Settings: 10 µM unless noted
About 83,000 compounds went through this panel and 20% of them were active in at least one assay; those are over-represented in the sample as a whole.
Reported growth values for a set of compounds

| compound | tgt | growth, % |
| --- | --- | --- |
| C[C@]12CC[C@@H]3c4ccc(O)cc4CC[C@H]3[C@@H]1C[C@H](O)C2 | UACC-62 melanoma | 43.6 |
| COC(=O)c1nc(-c2ccccc2)oc1S(=O)(=O)n1nc(-c2ccccc2)cc1N | UACC-62 melanoma | 95.2 |
| C(=C\c1cn(-c2ccccc2)nc1-c1ccccc1)/c1nnc(-c2c[nH]c3ccccc23)o1 | UACC-62 melanoma | 95.4 |
| Cc1ccc2nc3nc4ccc[nH]c4cc3c2c1 | UACC-62 melanoma | 94.3 |
| O=C(NC[C@H](O)CN1CCc2ccccc2C1)c1cc(NC2COC2)ncn1 | UACC-62 melanoma | 91.8 |
| CCCn1c(N)c(C(N)=O)sc1=S | UACC-62 melanoma | 97.9 |
| COc1ccc(C(=O)c2cc(OC)c(OC)c(OC)c2)cc1OC(=O)CCl | UACC-62 melanoma | 45.2 |
| Cc1cc(O)cc(O)c1N=NC1=NCCS1 | UACC-62 melanoma | 99.5 |
| CCOC(=O)c1ccc(Nc2ncnc3ccc(NC(=O)c4ccccc4)cc23)cc1 | UACC-62 melanoma | 88.9 |
| C#CCOC(=O)[C@]1(C)CCC[C@]2(C)[C@H]3C[C@H]4C(C(C)C)=C[C@]3(CC[C@H]21)[C@@H]1C(=O)CCC(=O)[C@@H]14 | UACC-62 melanoma | 63.1 |
| Cc1c(Br)cccc1NC(=O)c1sc2nc3c(cc2c1N)CN(Cc1ccccc1)CC3 | UACC-62 melanoma | 28.1 |
| Nn1c(SCC(=O)Nc2ccc(Cl)cc2)nnc1-c1cc(F)c(Cl)cc1Cl | UACC-62 melanoma | 65.8 |
| NC(=O)CN1C(=O)c2ccccc2C1=O | UACC-62 melanoma | 95.7 |
| COc1ccc(-n2cc(-c3ccc(Cl)c(Cl)c3)[nH]c2=O)cc1OC | UACC-62 melanoma | 87.5 |
| CCCCN(CCCC)CC(CN(CC)CC)OC(=O)Nc1ccccc1 (configuration not stated) | UACC-62 melanoma | 111 |
| COC(=O)c1ccc2c(c1)NC(=O)[C@@H]1CCCN21 | UACC-62 melanoma | 94.6 |
| CN1CCN(CC#CCOC(=O)CNC(=O)[C@]23CCC(C)(C)C[C@H]2C2=CC[C@@H]4[C@@]5(C)CC[C@H](O)C(C)(C)[C@@H]5CC[C@@]4(C)[C@]2(C)CC3)CC1 | UACC-62 melanoma | 90.3 |
